target: CYP24 (Homo sapiens); construct: expressed in transfected cells; test: CYP24 enzyme assay (stable cell line V79-CYP24 cells); type: cell-based; conditions: [3H-1β]-1α,25(OH)2D3 20 nM, 2 hours
Sequence (Q07973 36-514): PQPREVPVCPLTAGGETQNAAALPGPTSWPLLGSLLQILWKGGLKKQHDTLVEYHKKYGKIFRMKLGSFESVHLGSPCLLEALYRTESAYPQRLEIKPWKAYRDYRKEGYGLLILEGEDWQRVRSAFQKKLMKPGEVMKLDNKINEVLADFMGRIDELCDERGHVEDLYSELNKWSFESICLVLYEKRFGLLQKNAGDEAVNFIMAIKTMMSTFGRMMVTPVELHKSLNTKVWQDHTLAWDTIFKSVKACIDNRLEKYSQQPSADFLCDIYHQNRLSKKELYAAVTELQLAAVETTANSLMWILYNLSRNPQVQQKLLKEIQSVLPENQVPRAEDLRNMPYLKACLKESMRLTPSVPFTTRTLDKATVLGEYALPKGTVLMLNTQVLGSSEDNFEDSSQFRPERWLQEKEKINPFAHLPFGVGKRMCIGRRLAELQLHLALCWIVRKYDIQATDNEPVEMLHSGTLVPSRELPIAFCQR
Binarize IC50 at 40 nM; below is Fulfilled, at or above is Not fulfilled.

Query :: Is IC50 strictly under 40 nM for the entry C=C1CC[C@H](O)C/C1=C/C=C1\CCC[C@]2(C)[C@@H]([C@H](C)CCS(=N)(=O)c3ccccc3)CC[C@@H]12 (some centres unmarked) ?
Result :: Not fulfilled

Query :: Is IC50 strictly under 40 nM for the entry C=C1/C(=C\C=C2/CCC[C@]3(C)[C@@H]([C@H](C)CCS(=N)(=O)c4ccccc4)CC[C@@H]23)C[C@@H](O)C[C@@H]1O (single isomer, unassigned) [I(c)] ?
Result :: Fulfilled

Query :: Is IC50 strictly under 40 nM for the entry C[C@H](CCS(=N)(=O)c1ccccc1)[C@H]1CC[C@H]2/C(=C/C=C3C[C@@H](O)C[C@H](O)C3)CCC[C@]12C (single isomer, unassigned) [I(i), 24-Phenyl Sulfoximine 19-Nor-Vitamin-D3] ?
Result :: Fulfilled

Query :: Is IC50 strictly under 40 nM for the entry CN=S(=O)(CC[C@@H](C)[C@H]1CC[C@H]2/C(=C/C=C3C[C@@H](O)C[C@H](O)C3)CCC[C@]12C)c1ccccc1 (single isomer, unassigned) [I(k)] ?
Result :: Not fulfilled

Query :: Is IC50 strictly under 40 nM for the entry C=C1/C(=C\C=C2/CCC[C@]3(C)[C@@H]([C@H](C)CC4(S(=N)(=O)c5ccccc5)CC4)CC[C@@H]23)C[C@@H](O)C[C@@H]1O (single isomer, unassigned) [I(o)] ?
Result :: Fulfilled

Query :: Is IC50 strictly under 40 nM for the entry C=C1/C(=C\C=C2/CCC[C@]3(C)[C@@H]([C@H](C)CCS(=N)(=O)c4ccc(F)cc4)CC[C@@H]23)C[C@@H](O)C[C@@H]1O (single isomer, unassigned) [I(p)] ?
Result :: Not fulfilled

Query :: Is IC50 strictly under 40 nM for the entry CN=S(=O)(CC[C@@H](C)[C@H]1CC[C@H]2/C(=C/C=C3C[C@@H](O)C[C@H](O)C3)CCC[C@]12C)c1ccccc1 (single isomer, unassigned) [I(l)] ?
Result :: Not fulfilled

Query :: Is IC50 strictly under 40 nM for the entry C=C1/C(=C\C=C2/CCC[C@]3(C)[C@@H]([C@H](C)CCS(=N)(=O)c4ccc(F)cc4)CC[C@@H]23)C[C@@H](O)C[C@@H]1O (single isomer, unassigned) [I(q)] ?
Result :: Not fulfilled

Query :: Is IC50 strictly under 40 nM for the entry C=C1/C(=C\C=C2/CCC[C@]3(C)[C@@H]([C@H](C)CCS(=N)(=O)c4ccccc4)CC[C@@H]23)C[C@@H](O)C[C@@H]1O (single isomer, unassigned) [I(a)] ?
Result :: Fulfilled

Query :: Is IC50 strictly under 40 nM for the entry C=C1/C(=C\C=C2/CCC[C@]3(C)[C@@H]([C@H](C)CCS(=O)(=NC)c4ccccc4)CC[C@@H]23)C[C@@H](O)C[C@@H]1O (single isomer, unassigned) [I(e)] ?
Result :: Fulfilled

Query :: Is IC50 strictly under 40 nM for the entry C=C1/C(=C\C=C2/CCC[C@]3(C)[C@@H]([C@H](C)CC4(S(=N)(=O)c5ccccc5)CC4)CC[C@@H]23)C[C@@H](O)C[C@@H]1O (single isomer, unassigned) [I(n)] ?
Result :: Fulfilled

Query :: Is IC50 strictly under 40 nM for the entry C=C1/C(=C\C=C2/CCC[C@]3(C)[C@@H]([C@@H](C)/C=C/S(=N)(=O)c4ccccc4)CC[C@@H]23)C[C@@H](O)C[C@@H]1O (some centres unmarked) [I(s)] ?
Result :: Not fulfilled

Query :: Is IC50 strictly under 40 nM for the entry C[C@H](CCS(=N)(=O)c1ccccc1)[C@H]1CC[C@H]2/C(=C/C=C3C[C@@H](O)C[C@H](O)C3)CCC[C@]12C (single isomer, unassigned) [I(j), 24 Phenyl Sulfoximine 19-Nor-Vitamin-D3] ?
Result :: Fulfilled

Query :: Is IC50 strictly under 40 nM for the entry C=C1/C(=C\C=C2/CCC[C@]3(C)[C@@H]([C@H](C)CCS(=O)(=NC)c4ccccc4)CC[C@@H]23)C[C@@H](O)C[C@@H]1O (single isomer, unassigned) [I(g)] ?
Result :: Fulfilled

###

IC50 values recorded for CYP27A1 (Homo sapiens, UniProt Q02318)

Lab book: IC50 of C=C1/C(=C\C=C2/CCC[C@]3(C)[C@@H]([C@H](C)CCS(=O)(=NC)c4ccccc4)CC[C@@H]23)C[C@@H](O)C[C@@H]1O (single isomer, unassigned) [I(e)] noted as > 1000 nM

Lab book: IC50 of C=C1/C(=C\C=C2/CCC[C@]3(C)[C@@H]([C@H](C)CCS(=O)(=NC)c4ccccc4)CC[C@@H]23)C[C@@H](O)C[C@@H]1O (single isomer, unassigned) [I(g)] noted as > 1000 nM

Provenance of the data: patent US7973024B2
